Form field: melting point (one value per entry).

CC1CC(N2C(=O)c3ccccc3C2=O)C(=O)NC1=O (stereo not given); 270 to 272 °C
COc1ccc(-n2cc(C(=O)N(CC(=O)O)c3ccc(OCC(C)(C)C)c(C#N)c3)c(C)n2)cc1; 98 to 101 °C
O=C(c1ccc(Nc2ccnc3cc(C(F)(F)F)ccc23)cc1)N1CCN(S(=O)(=O)c2ccc(F)cc2)CC1; 251 to 253 °C
Cn1nc(C(F)(F)F)n(-c2ccc(O)cc2)c1=S; 150 to 152 °C
N#Cc1ccc(C=CC(=O)C2CC2)cc1; 104 °C
CCC(=O)C1=C(O)OC(C)(C)OC1=O; 55 to 57 °C

Ask: Input "O=c1cc(OCc2ccccc2)c2ccc(O)cc2o1" , output reported melting point.
Reply: 234 °C

Ask: Input "C=CCc1ccc(C[C@H](NC(=O)OC(C)(C)C)C(=O)OC)cc1" , output reported melting point.
Reply: 56 to 59 °C

Ask: Input "CC(C(=O)O)(c1ccc(OCc2ccc3ccccc3n2)cc1)c1ccc(OCc2ccc3ccccc3n2)cc1" , output reported melting point.
Reply: 208 to 210 °C

Ask: Input "CCNc1nc(C)c(-c2ccnc(Nc3cc(Cl)c(N4CCOCC4)c(Cl)c3)n2)s1" , output reported melting point.
Reply: > 300 °C

----------
Measure Name: melting point

Ask: Input "COC(=O)N1C[C@@H]2CN(c3ccc(N4C[C@H](CNC(C)=O)OC4=O)cc3F)C[C@@H]2C1" , output reported melting point.
Reply: 128 to 132 °C

----------
Measure Name: melting point

Examples with their reported melting point follow.
CCOC(OCC)C(O)(Cc1c(NC(=O)C(C)(C)C)cnc(Cl)c1C)c1ccccc1 (centres undefined); 133 °C
CCOC(=O)/C(=N\OCc1c(Cl)cccc1Cl)c1csc(N)n1; 171 to 172 °C
Cc1nc(N)nc(N)c1N=Nc1ccc(Br)cc1; 245 to 246 °C
O=C(NCC(=O)N1c2ccccc2N(Cc2ccccc2)C(=O)[C@H]2CCC[C@H]21)c1ccc(C(F)(F)F)cc1 (relative stereo); 218 to 220 °C
O=C(O)c1ccc(OCc2ccccc2CCc2ccccc2)cc1; 178 to 180 °C

Ask: Input "Cc1cccc(-c2n[nH]cc2-c2ccc(F)c(-c3cc[nH]n3)c2)n1" , output reported melting point.
Reply: 105 to 108 °C

Ask: Input "O=C(O)CNc1nccc(-n2cc(C3c4ccccc4C=Cc4ccccc43)c(=S)[nH]c2=O)n1" , output reported melting point.
Reply: 208 °C

Ask: Input "Oc1ccc(C(=S)N2CCOCC2)cc1" , output reported melting point.
Reply: 205 °C

Ask: Input Nc1ccc2c(c1)OCC(CN1CC=C(c3c[nH]c4ccccc34)CC1)O2 (centres undefined) , output reported melting point.
Reply: 199 to 200 °C

----------
Form field: melting point (one value per entry).

Examples with their reported melting point follow.
Cc1cc(C)n(-c2ncc(C)c(Nc3ccc(Cl)cc3)n2)n1; 179 to 182 °C
CCS(=O)(=O)N(C)C1c2cc(F)c(Cl)cc2OC(C)(C)C1O (centres undefined); 188 to 190 °C

Ask: Input CC(C)OC(=O)C(C)n1c(C(F)(F)F)nc2cc(F)c(-n3c(=O)cc(C(F)(F)F)n(C)c3=O)cc21 (centres undefined) , output reported melting point.
Reply: 133 to 135 °C

Ask: Input "Cc1ccc(Br)cc1-c1c(O)c(C)nn(C)c1=O" , output reported melting point.
Reply: 217 to 218 °C

Ask: Input "Cc1cc(-c2c3c(cc4ccc(O)cc24)-c2ccc(O)cc2CO3)ccc1F" , output reported melting point.
Reply: 185 to 188 °C

Ask: Input "OCc1cnoc1-c1cc(Cl)cc(Cl)c1" , output reported melting point.
Reply: 104 to 105 °C

Ask: Input O=C1Nc2c(cc([N+](=O)[O-])cc2[N+](=O)[O-])C1c1ncnc2c1cnn2C1CCCC1 (centres undefined) , output reported melting point.
Reply: 242 to 246 °C

Ask: Input CCCN(CCC)C1Cc2c(-c3ncco3)ccc3c2C(C1)CN3C(=O)c1ccccc1 (single isomer, unassigned; (-)) , output reported melting point.
Reply: 103 to 104 °C

Ask: Input "O=C(O)c1nc(-c2ccc(Cl)cc2Cl)[nH]c1C(=O)O" , output reported melting point.
Reply: 238 °C

FYI, the data here is from a melting point compilation (Tetko et al.; mined from patent text by program, amines drawn as free bases though some values may be those of a salt).
